Target: T1, PUF4 RNA-binding domain (Saccharomyces cerevisiae, UniProt P25339 537-888)
T1 sequence: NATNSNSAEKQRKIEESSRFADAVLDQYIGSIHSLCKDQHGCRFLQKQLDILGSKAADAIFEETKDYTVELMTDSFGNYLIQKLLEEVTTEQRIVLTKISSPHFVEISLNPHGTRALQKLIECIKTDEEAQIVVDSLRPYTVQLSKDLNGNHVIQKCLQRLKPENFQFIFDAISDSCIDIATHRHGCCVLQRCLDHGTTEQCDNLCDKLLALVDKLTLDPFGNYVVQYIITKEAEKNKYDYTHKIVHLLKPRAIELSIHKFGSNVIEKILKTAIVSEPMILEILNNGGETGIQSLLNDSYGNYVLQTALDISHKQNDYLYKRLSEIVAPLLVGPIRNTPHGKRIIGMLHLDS
Assay: Mg; RNA-MaP; 20 mM Na-HEPES pH 7.4, 30 mM KOAc, 0.75 mM MgCl2, 0.1% Tween-20, 5% glycerol, 0.1 mg/mL BSA, 2 mM DTT; 25 C; 0.0125-409.6 nM protein
Settings: tags: N-His6-TEV cleaved; C-SNAP kept, Cy3B-labelled; label: tethered on chip by stalled RNA polymerase
// Kd lookup, one value per entry
Report only the number, with the unit nM understood.

# count of solved cases: 3
Binder	Reading Unit	Kd
UCUCUUUGUAUUAUUUUCCUAUCUCUU (ssRNA) [Ie_S1_P5E.1_K5.1_C5.1_H5.1_A5.1_F5.1_[+9TTCCT]_T5.1]	nM	22.3
Ic_S4_P5E.1_K5.1_C5.1_H5.1_A5.1_[T6C]_F5.1_[T8G]_[A10C]_T5.1 (ssRNA) RNA: UUUGACAACUGAUCGUUCUUUCUUGUAUCAGUCUUCUUUCUCGAUCAGUUGUCUUU	nM	342
ACAAACAUACACUAUAACACAAAC (ssRNA) [Id_ii_S3_P3E.4_K3.3_C3.2_[C-2A]_H3.3_A3.1_F3.1_T3.2_[T9A]_[A10C]]	nM	1680

// query Query (binder): Id_i_S4_P3E.7_K3.3_C3.3_[T-3A]_[C-2T]_[T-1C]_H3.3_A3.1_F3.1_T3.2 (ssRNA) RNA: UUUGACAACUGAUCGUUCUUUCUAUCACACUAUAUAUUCUUUCUCGAUCAGUUGUCUUU ; field requested: Kd
// result 346

// query Next up: UCUCUUCUUAUAUAUACGUCUCUU (ssRNA) [Id_ii_S1_P3E.3_K3.2_C3.2_H3.2_A3.1_F3.1_T3.2_[T9C]_[A10G]]
// result 1260
